System: TGF-β
Assay: AlphaScreen SureFire p-SMAD3 (Ser423/425) assay, TGF-β-stimulated cells
Type: cell-based
Conditions: Mus musculus, MPC-11, read-out: TGF-β: inhibition of TGF-β signaling, TGF-β pSMAD (MPC-11), p-SMAD3 (Ser423/425) AlphaScreen in cell lysate, TGF-β stimulation
pIC50: −log10 of the molar value.
Measured property: pIC50

If you can, please state the reported pIC50 value of "Fc1cc(F)c(F)c(-c2nc3n(c2-c2ccc4ncsc4c2)CCC3)c1" .
6.00 to 7.00

If you can, please state the reported pIC50 value of "COc1cccc(-c2nc3n(c2-c2ccc4ncsc4c2)CCC3)c1" .
6.00 to 7.00

If you can, please state the reported pIC50 value of "Fc1ccc(-c2nc3n(c2-c2ccc4ncsc4c2)CCC3)cc1" .
6.00 to 7.00

If you can, please state the reported pIC50 value of "Fc1cccc(-c2nc3n(c2-c2ccc4cn[nH]c4c2)CCC3)c1" .
< 6.00

If you can, please state the reported pIC50 value of "Fc1ccc(Cl)cc1-c1nc2n(c1-c1ccc3ncc(-n4ccnc4)nc3c1)CCC2" .
> 7.30

If you can, please state the reported pIC50 value of "Cc1cc(F)c(-c2nc3n(c2-c2ccc4[nH]ncc4c2)CCC3)cc1F" .
< 6.00

If you can, please state the reported pIC50 value of "Cc1ccccc1-c1nc2n(c1-c1ccc3ncnn3c1)CCC2" .
< 6.00

If you can, please state the reported pIC50 value of "Fc1cc(-c2nc3n(c2-c2ccc4ncsc4c2)CCC3)cc(F)c1F" .
< 6.00

If you can, please state the reported pIC50 value of OCC1CCC2(CC1)Cc1nc(-c3ccc(F)cc3)c(-c3ccc4nccnc4c3)n1C2 (centres unmarked) .
< 6.00

If you can, please state the reported pIC50 value of OCC1CCC2(CC1)Cc1nc(-c3ccc(F)cc3)c(-c3ccc4ncnn4c3)n1C2 (centres unmarked) .
< 6.00

If you can, please state the reported pIC50 value of "Cc1cc(F)c(-c2nc3n(c2-c2ccc4nccnc4c2)CCC3)cc1F" .
< 6.00

If you can, please state the reported pIC50 value of "Cc1cc(-c2nc3n(c2-c2ccc4ncsc4c2)CCC3)c(C)cc1F" .
6.00 to 7.00

If you can, please state the reported pIC50 value of "Cc1cc(-c2nc3n(c2-c2ccc4[nH]ncc4c2)CCC3)c(Cl)cc1F" .
6.00 to 7.00

If you can, please state the reported pIC50 value of "Cc1cc(-c2nc3n(c2-c2ccc4ncccc4c2)CCC3)c(Cl)cc1F" .
< 6.00

###

Tested on: TGF-β
Assay: AlphaScreen SureFire p-SMAD3 (Ser423/425) assay, TGF-β-stimulated cells
Format: cell-based
Details: Mus musculus; p-SMAD3 (Ser423/425) AlphaScreen in cell lysate; MPC-11; TGF-β stimulation; read-out: TGF-β: inhibition of TGF-β signaling, TGF-β pSMAD (MPC-11)
pIC50: −log10 of the molar value.
Consider the following compounds; for each one, report its pIC50.

If you can, please state the reported pIC50 value of "Cc1cc(-c2nc3n(c2-c2ccc4[nH]ncc4c2)CCC3)c(F)cc1F" .
7.00 to 7.30

If you can, please state the reported pIC50 value of "Fc1ccc(-c2nc3occn3c2-c2ccc3[nH]ncc3c2)cc1F" .
7.00 to 7.30

If you can, please state the reported pIC50 value of CS(=O)(=O)OCC1CCC2(CC1)Cc1nc(-c3ccc(F)cc3)c(-c3ccc4ncnn4c3)n1C2 (stereo not drawn) .
< 6.00

If you can, please state the reported pIC50 value of "Fc1ccc(-c2nc3n(c2-c2ccc4nccn4c2)CCC3)cc1F" .
< 6.00

If you can, please state the reported pIC50 value of "Fc1ccc(-c2nc3occn3c2-c2ccc3nccn3c2)cc1" .
7.00 to 7.30

If you can, please state the reported pIC50 value of "Fc1ccc(-c2nc3n(c2-c2ccc4[nH]ncc4c2)CCC3)cc1Cl" .
6.00 to 7.00

If you can, please state the reported pIC50 value of "Nc1ncnc2ccc(-c3c(-c4ccc(F)c(Cl)c4)nc4n3CCC4)cc12" .
7.00 to 7.30

If you can, please state the reported pIC50 value of "CC(C)c1nnc2ccc(-c3c(-c4cc(F)cc(F)c4F)nc4n3CCC4)cn12" .
< 6.00

If you can, please state the reported pIC50 value of "Cc1c(F)ccc(-c2nc3n(c2-c2ccc4ncsc4c2)CCC3)c1F" .
6.00 to 7.00

If you can, please state the reported pIC50 value of "Fc1ccc(-c2nc3occn3c2-c2ccc3[nH]ncc3c2)cc1" .
7.00 to 7.30

If you can, please state the reported pIC50 value of "Fc1ccc(-c2nc3occn3c2-c2ccc3[nH]ncc3c2)c(F)c1F" .
6.00 to 7.00

If you can, please state the reported pIC50 value of "Cc1cc(-c2nc3n(c2-c2ccc4ncsc4c2)CCC3)cc(C)c1Cl" .
< 6.00

If you can, please state the reported pIC50 value of "Cc1ccc(-c2nc3n(c2-c2ccc4nccn4c2)CCC3)c(F)c1F" .
< 6.00

If you can, please state the reported pIC50 value of "Fc1ccc(-c2nc3n(c2-c2cc4cnccc4s2)CCC3)cc1" .
6.00 to 7.00

If you can, please state the reported pIC50 value of "Fc1ccc(-c2nc3n(c2-c2ccc4nccnc4c2)CCC3)c(F)c1F" .
< 6.00

# credit: patent US10696693B2
